Endpoint: pKi. System: α1b-AR (Homo sapiens, UniProt P35368). Items follow.
Value format note: pKi is -log10 of concentration (mol/L); just state the number.

compound	pKi
CC(C)Oc1ccccc1N1CCN([C@H]2CC[C@@H](NS(=O)(=O)c3ccccc3S(C)(=O)=O)CC2)CC1	6.93
CC(C)Oc1ccccc1N1CCN([C@H]2CC[C@H](NS(=O)(=O)c3cccc(Cl)c3F)CC2)CC1	6.46
CC(C)Oc1ccccc1N1CCN([C@H]2CC[C@@H](NS(=O)(=O)c3ccc(Cl)cc3F)CC2)CC1	7.00
CC(C)Oc1ccccc1N1CCN([C@H]2CC[C@@H](NS(=O)(=O)c3cccc(C(F)(F)F)c3)CC2)CC1 [Cpd 16]	6.65
CC(C)Oc1ccccc1N1CCN([C@H]2CC[C@@H](NS(=O)(=O)c3ccccc3C(F)(F)F)CC2)CC1	6.72

-- ask Under α1b-AR (Homo sapiens, UniProt P35368): pKi value of "CC(C)Oc1ccccc1N1CCN([C@H]2CC[C@@H](NS(=O)(=O)c3ccccc3C#N)CC2)CC1" ?
-- reply 6.66

---

experimental-target: α1d-AR (Homo sapiens, UniProt P25100)
Construct: expressed in transfected cells; host or cells: COS-7
Sequence (P25100 whole entry): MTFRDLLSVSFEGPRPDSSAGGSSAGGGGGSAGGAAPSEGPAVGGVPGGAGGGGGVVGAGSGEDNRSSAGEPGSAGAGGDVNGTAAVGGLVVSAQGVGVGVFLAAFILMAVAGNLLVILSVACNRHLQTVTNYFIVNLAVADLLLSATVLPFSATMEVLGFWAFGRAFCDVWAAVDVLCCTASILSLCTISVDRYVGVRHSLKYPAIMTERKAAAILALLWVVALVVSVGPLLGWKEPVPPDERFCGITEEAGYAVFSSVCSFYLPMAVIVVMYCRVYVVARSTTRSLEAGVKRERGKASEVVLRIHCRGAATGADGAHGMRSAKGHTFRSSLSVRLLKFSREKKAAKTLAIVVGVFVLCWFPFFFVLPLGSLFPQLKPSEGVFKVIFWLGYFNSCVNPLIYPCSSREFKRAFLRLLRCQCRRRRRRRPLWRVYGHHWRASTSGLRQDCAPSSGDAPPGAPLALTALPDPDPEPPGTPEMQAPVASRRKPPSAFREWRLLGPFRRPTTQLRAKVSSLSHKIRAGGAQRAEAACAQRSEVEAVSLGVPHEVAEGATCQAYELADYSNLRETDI
test-summary: α1-Adrenergic receptor radio-ligand (125I-HEAT) binding assay, α1d subtype
experimental-parameters: COS-7 cell membranes, 125I-HEAT; read-out: Receptor Binding, Ki α1d-AR
endpoint-name: Ki (nM)
Write the number in nM without appending the unit.

Look over these answered cases.
compound	endpoint-name	unit-abbreviation	reported-measurement
CC(C)Oc1ccccc1N1CCN([C@H]2CC[C@H](NS(=O)(=O)c3cnc(Cl)c(Br)c3)CC2)CC1 [Cpd 66]	Ki	nM	14.6
CCN([C@H]1CC[C@@H](N2CCN(c3ccccc3OC(C)C)CC2)CC1)S(=O)(=O)c1ccc(OC)c(OC)c1 [Cpd 67]	Ki	nM	22
COc1ccc(C(F)(F)F)cc1S(=O)(=O)N[C@H]1CC[C@@H](N2CCN(c3ccccc3OC(C)C)CC2)CC1 [Cpd 20]	Ki	nM	14

-- ask Report Ki for COc1ccc(S(=O)(=O)N[C@H]2CC[C@@H](N3CCN(c4ccc(F)cc4OCC(F)(F)F)CC3)CC2)cc1OC [Cpd 75] please.
-- reply 5.2

-- ask Report Ki for COc1ccc(S(=O)(=O)N[C@H]2CC[C@H](N3CCN(c4ccc(F)cc4OCC(F)(F)F)CC3)CC2)cc1OC [Cpd 80] please.
-- reply 38

-- ask Report Ki for CC(C)Oc1ccccc1N1CCN([C@H]2CC[C@@H](NS(=O)(=O)c3ccc(Cl)cc3Cl)CC2)CC1 [Cpd 1] please.
-- reply 0.64

-- ask Report Ki for COc1ccc(S(=O)(=O)N[C@H]2CC[C@@H](N3CCN(c4ccccc4OCC(F)(F)F)CC3)CC2)cc1OC [Cpd 69] please.
-- reply 0.92

-- ask Report Ki for CC(C)Oc1cc(F)ccc1N1CCN([C@H]2CC[C@@H](NS(=O)(=O)c3cc(Cl)ccc3F)CC2)CC1 [Cpd 74] please.
-- reply 2.2

-- ask Report Ki for COc1ccc(C)cc1S(=O)(=O)N[C@H]1CC[C@H](N2CCN(c3ccccc3OC(C)C)CC2)CC1 [Cpd 32] please.
-- reply 31

-- ask Report Ki for CC(C)Oc1ccccc1N1CCN([C@H]2CC[C@@H](NS(=O)(=O)c3ccc(C(F)(F)F)cc3)CC2)CC1 [Cpd 9] please.
-- reply 18

-- ask Report Ki for CC(C)Oc1ccccc1N1CCN([C@H]2CC[C@H](NS(=O)(=O)c3ccc(Cl)cc3Cl)CC2)CC1 [Cpd 29] please.
-- reply 8.6

-- ask Report Ki for CC(C)Oc1ccccc1N1CCN([C@H]2CC[C@@H](NS(=O)(=O)c3cc(Cl)ccc3F)CC2)CC1 [Cpd 12] please.
-- reply 0.4

-- ask Report Ki for CC(C)Oc1ccccc1N1CCN([C@H]2CC[C@H](NS(=O)(=O)c3ccc(F)c(Cl)c3)CC2)CC1 [Cpd 42] please.
-- reply 72

-- ask Report Ki for CC(C)Oc1ccccc1N1CCN([C@H]2CC[C@H](NS(=O)(=O)c3cccnc3)CC2)CC1 [Cpd 64] please.
-- reply 5.5

---

experimental-target: α1b-AR (Homo sapiens)
Sequence (P35368 1-520): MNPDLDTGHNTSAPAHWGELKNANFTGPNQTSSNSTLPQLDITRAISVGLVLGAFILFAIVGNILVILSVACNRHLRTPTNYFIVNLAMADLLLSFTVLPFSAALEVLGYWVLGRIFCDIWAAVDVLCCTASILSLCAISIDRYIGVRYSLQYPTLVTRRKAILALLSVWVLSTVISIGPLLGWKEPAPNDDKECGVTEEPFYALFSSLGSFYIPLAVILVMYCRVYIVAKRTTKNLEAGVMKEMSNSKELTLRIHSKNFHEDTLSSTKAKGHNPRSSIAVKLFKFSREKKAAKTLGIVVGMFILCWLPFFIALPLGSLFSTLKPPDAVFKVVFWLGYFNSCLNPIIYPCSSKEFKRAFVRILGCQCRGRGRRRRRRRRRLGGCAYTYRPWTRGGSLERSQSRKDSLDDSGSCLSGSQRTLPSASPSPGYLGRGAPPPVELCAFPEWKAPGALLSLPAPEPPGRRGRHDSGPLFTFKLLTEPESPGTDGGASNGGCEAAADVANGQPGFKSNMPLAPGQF
test-summary: α1-Adrenergic receptor radio-ligand (125I-HEAT) binding assay, α1b subtype
experimental-parameters: Receptor Binding, Ki α1b-AR, COS-7 cell membranes, 125I-HEAT
Measured Ki, listed per entry.
Be sure to follow the number with its unit.

Look over these answered cases.
molecule	Ki
CC(C)Oc1cc(F)ccc1N1CCN([C@H]2CC[C@H](NS(=O)(=O)c3cc(Cl)ccc3F)CC2)CC1 [Cpd 79]	107 nM
CC(C)Oc1ccccc1N1CCN([C@H]2CC[C@H](NS(=O)(=O)c3ccccc3C#N)CC2)CC1 [Cpd 55]	31 nM
COc1ccc(C(F)(F)F)cc1S(=O)(=O)N[C@H]1CC[C@H](N2CCN(c3ccccc3OC(C)C)CC2)CC1 [Cpd 48]	258 nM
CC(C)Oc1ccccc1N1CCN([C@H]2CC[C@@H](NS(=O)(=O)c3cccc(C(F)(F)F)c3)CC2)CC1 [Cpd 2]	276 nM
COc1ccc(OC)c(S(=O)(=O)N[C@H]2CC[C@@H](N3CCN(c4ccccc4OC(C)C)CC3)CC2)c1 [Cpd 8]	167 nM
COc1ccc(S(=O)(=O)N[C@H]2CC[C@@H](N3CCN(c4ccccc4OC(C)C)CC3)CC2)cc1OC [Cpd 7]	109 nM

-- ask Report Ki for CC(C)Oc1ccccc1N1CCN([C@H]2CC[C@@H](NS(=O)(=O)c3ccc(F)cc3)CC2)CC1 [Cpd 10] please.
-- reply 150 nM

---

experimental-target: α1d-AR (Homo sapiens)
Construct: expressed in transfected cells; host or cells: COS-7
test-summary: α1-Adrenergic receptor radio-ligand (125I-HEAT) binding assay, α1d subtype
experimental-parameters: COS-7 cell membranes, 125I-HEAT; read-out: Receptor Binding, Ki α1d-AR
Description: α1-Adrenergic Receptor Binding Assay: Preparation of COS Cell Membranes Membranes were prepared from COS-7 cells that had been transfected with one of the three α1-AR subtypes by the following method. COS cells from ten 100 mm tissue culture plates were scraped into 5 mL TE (50 mM Tris-HCl, 5 mM EDTA, pH 7.4). […] The protein concentration was determined using the BioRad DC protein assay kit following membrane solubilization with Triton X-100. […]
Measured pKi, listed per entry.
Value format note: pKi is -log10 of concentration (mol/L); just state the number.

-- ask Report pKi for "Cc1ccc(S(=O)(=O)N[C@H]2CC[C@@H](N3CCN(c4ccccc4OC(C)C)CC3)CC2)cc1Cl" please.
-- reply 7.95

---

experimental-target: α1a-AR (Homo sapiens)
Sequence (P35348 1-466): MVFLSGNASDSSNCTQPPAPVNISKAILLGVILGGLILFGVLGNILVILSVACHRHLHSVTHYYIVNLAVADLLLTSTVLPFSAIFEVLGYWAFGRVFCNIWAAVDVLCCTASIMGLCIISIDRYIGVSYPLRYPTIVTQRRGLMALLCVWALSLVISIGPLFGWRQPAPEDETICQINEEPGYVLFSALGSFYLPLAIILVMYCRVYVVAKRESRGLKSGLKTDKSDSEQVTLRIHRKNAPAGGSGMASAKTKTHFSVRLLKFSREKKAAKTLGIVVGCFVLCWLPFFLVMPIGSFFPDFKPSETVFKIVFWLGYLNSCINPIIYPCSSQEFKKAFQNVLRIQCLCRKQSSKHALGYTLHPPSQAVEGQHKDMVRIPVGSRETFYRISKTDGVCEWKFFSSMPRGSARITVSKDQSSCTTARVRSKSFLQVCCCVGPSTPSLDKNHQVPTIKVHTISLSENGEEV
endpoint-name: Ki (nM)
Write the number in nM without appending the unit.

CC(C)Oc1ccccc1N1CCN([C@H]2CC[C@@H](NS(=O)(=O)c3cnc(Cl)c(Br)c3)CC2)CC1 14.4
CC(C)Oc1ccccc1N1CCN([C@H]2CC[C@@H](NS(=O)(=O)c3cccc(F)c3)CC2)CC1 3.5
CC(C)Oc1ccccc1N1CCN([C@H]2CC[C@@H](NS(=O)(=O)c3ccc(C(F)(F)F)cc3)CC2)CC1 25
COc1ccc(Cl)cc1S(=O)(=O)N[C@H]1CC[C@H](N2CCN(c3ccc(F)cc3OC(C)C)CC2)CC1 340
COc1ccncc1S(=O)(=O)N[C@H]1CC[C@@H](N2CCN(c3ccccc3OC(C)C)CC2)CC1 4.9

-- ask Under α1a-AR (Homo sapiens): Ki value of "COc1ccc(Cl)cc1S(=O)(=O)N[C@H]1CC[C@@H](N2CCN(c3ccc(F)cc3OCC(F)(F)F)CC2)CC1" ?
-- reply 17

-- ask Under α1a-AR (Homo sapiens): Ki value of "COc1ccc(S(=O)(=O)N[C@H]2CC[C@H](N3CCN(c4ccc(F)cc4OCC(F)(F)F)CC3)CC2)cc1OC" ?
-- reply 21

-- ask Under α1a-AR (Homo sapiens): Ki value of "CC(C)Oc1ccccc1N1CCN([C@H]2CC[C@H](NS(=O)(=O)c3ccccc3C(F)(F)F)CC2)CC1" ?
-- reply 18.1

-- ask Under α1a-AR (Homo sapiens): Ki value of "CCN([C@H]1CC[C@H](N2CCN(c3ccccc3OC(C)C)CC2)CC1)S(=O)(=O)c1ccc(OC)c(OC)c1" ?
-- reply 23

-- ask Under α1a-AR (Homo sapiens): Ki value of "COc1ccc([N+](=O)[O-])cc1S(=O)(=O)N[C@H]1CC[C@H](N2CCN(c3ccccc3OC(C)C)CC2)CC1" ?
-- reply 1

-- ask Under α1a-AR (Homo sapiens): Ki value of "COc1ccc(Cl)cc1S(=O)(=O)N[C@H]1CC[C@@H](N2CCN(c3ccccc3OC(C)C)CC2)CC1" ?
-- reply 2.5

-- ask Under α1a-AR (Homo sapiens): Ki value of "CCN([C@H]1CC[C@@H](N2CCN(c3ccccc3OC(C)C)CC2)CC1)S(=O)(=O)c1ccc(OC)c(OC)c1" ?
-- reply 15

-- ask Under α1a-AR (Homo sapiens): Ki value of "CC(C)Oc1ccccc1N1CCN([C@H]2CC[C@@H](NS(=O)(=O)c3ccccc3S(C)(=O)=O)CC2)CC1" ?
-- reply 12.5
